pEC50 values, listed per item
# Test system: ZIKV replicon in Vero cells
# assay-protocol: ZIKV Replication Inhibition Assay (replicon, NanoLuc)
# experimental-setup: Zika virus, Vero, 72 h, read-out: Zika Replicon EC50
pEC50: −log10 of the molar value.

Some entries whose results are on file:
Cc1noc(C)c1-c1cccc(C[n+]2cc([N-]C(=O)Nc3cccc(C(F)(F)F)c3)on2)c1 [Example 94] ... 6.00 to 7.00
O=C([N-]c1c[n+]([C@@H](Cc2ccccc2)CN2CCCC2)no1)Nc1cccc(C(F)(F)F)c1 [Example 40] ... 4.70 to 6.00
O=C([N-]c1c[n+](C(c2ccccc2)C(F)(F)F)no1)Nc1cccc(C(F)(F)F)c1 (stereo not drawn) [Example 44] ... < 4.70
Cc1c(-c2ccc(C[n+]3cc([N-]C(=O)Nc4cccc(C(F)(F)F)c4)on3)cc2)cnn1C [Example 95] ... 6.00 to 7.00
Cc1noc(C)c1-c1ccc(C[n+]2cc([N-]C(=O)Nc3cnc(C(F)(F)F)s3)on2)nc1 [Example 154] ... 6.00 to 7.00
Cc1ncn(C)c1-c1ccc(C[n+]2cc([N-]C(=O)Nc3cccc(C(F)(F)F)c3)on2)nc1 [Example 118] ... 6.00 to 7.00

So what pEC50 did Cc1ncn(C)c1-c1ccc(C[n+]2cc([N-]C(=O)Nc3cccc(C(F)(F)F)c3)on2)cc1 [Example 98] get with ZIKV replicon in Vero cells?
6.00 to 7.00

So what pEC50 did C[C@H](c1ccc(-c2cncnc2)cc1)[n+]1cc([N-]C(=O)Nc2cncc(C(F)(F)F)c2)on1 [Example 75] get with ZIKV replicon in Vero cells?
6.00 to 7.00

So what pEC50 did Cn1cc(-c2cccc(C[n+]3cc([N-]C(=O)Nc4cccc(C(F)(F)F)c4)on3)c2)cn1 [Example 52] get with ZIKV replicon in Vero cells?
6.00 to 7.00

So what pEC50 did O=C([N-]c1c[n+]([C@H](CF)Cc2ccccc2)no1)Nc1cccc(C(F)(F)F)c1 [Example 37] get with ZIKV replicon in Vero cells?
< 4.70

So what pEC50 did Cc1noc(C)c1-c1ccc(C[n+]2cc([N-]C(=O)Nc3ccnc(C(F)(F)F)c3)on2)nc1 [Example 152] get with ZIKV replicon in Vero cells?
> 7.00

So what pEC50 did Cc1ncncc1-c1ccc([C@@H](C)[n+]2cc([N-]C(=O)Nc3cccc(C(F)(F)F)c3)on2)cc1 [Example 82] get with ZIKV replicon in Vero cells?
6.00 to 7.00

So what pEC50 did COc1ncc(-c2ccc(C[n+]3cc([N-]C(=O)Nc4cncc(C(F)(F)F)c4)on3)cc2)cn1 [Example 58] get with ZIKV replicon in Vero cells?
6.00 to 7.00

====

# System: ZIKV replicon in Vero cells
# assay-protocol: ZIKV Replication Inhibition Assay (replicon, NanoLuc)
# experimental-setup: Zika virus, Vero, 72 h, read-out: Zika Replicon EC50
EC50 values, listed per item

Some entries whose results are on file:
COc1ncnc(C)c1-c1ccc(C[n+]2cc([N-]C(=O)Nc3cccc(C(F)(F)F)c3)on2)nc1 ... < 100 nM
O=C([N-]c1c[n+](Cc2ccc(-c3cnn4c3CNCC4)cn2)no1)Nc1cccc(C(F)(F)F)c1 ... 100 to 1000 nM
Cc1ncccc1-c1ccc(C[n+]2cc([N-]C(=O)Nc3cncc(C(F)(F)F)c3)on2)nc1 ... 100 to 1000 nM
COc1ncc(-c2cccc(C[n+]3cc([N-]C(=O)Nc4cccc(C(F)(F)F)c4)on3)c2)cn1 ... 100 to 1000 nM

Find the recorded EC50 belonging to "Cc1noc(C)c1-c1ncc(C[n+]2cc([N-]C(=O)Nc3cccc(C(F)(F)F)c3)on2)cn1" and report it.
100 to 1000 nM

Find the recorded EC50 belonging to "Cc1n[nH]c(C)c1-c1ccc(C[n+]2cc([N-]C(=O)Nc3cccc(C(F)(F)F)c3)on2)nc1" and report it.
100 to 1000 nM

====

# Test system: ZIKV replicon in Vero cells
# assay-protocol: ZIKV Replication Inhibition Assay (replicon, NanoLuc)
# experimental-setup: Zika virus, Vero, 72 h, read-out: Zika Replicon EC50
pEC50: −log10 of the molar value.
pEC50 values, listed per item

Some entries whose results are on file:
CC(=O)NC[C@@H](Cc1ccc(-c2ccccc2)cc1)[n+]1cc([N-]C(=O)Nc2cccc(C(F)(F)F)c2)on1 ... < 4.70
O=C([N-]c1c[n+](Cc2ccc(-c3cnccn3)cc2)no1)Nc1cccc(C(F)(F)F)c1 ... 6.00 to 7.00
Cc1noc(C)c1-c1ccc(C[n+]2cc([N-]C(=O)Nc3cncc(C4CC4)c3)on2)nc1 ... 6.00 to 7.00
O=C([N-]c1c[n+](Cc2ccc(-c3ccnnc3)cn2)no1)Nc1cncc(C(F)(F)F)c1 ... 4.70 to 6.00
O=C([N-]c1c[n+](Cc2ccc(-c3ccncc3)cc2)no1)Nc1cccc(C(F)(F)F)c1 ... 6.00 to 7.00

// moving on: another record for pEC50
Find the recorded pEC50 belonging to "O=C([N-]c1c[n+](Cc2ccc(-c3ccncc3)cc2)no1)Nc1cncc(C(F)(F)F)c1" and report it.
6.00 to 7.00

====

# Test system: ZIKV replicon in Vero cells
# assay-protocol: ZIKV Replication Inhibition Assay (replicon, NanoLuc)
# experimental-setup: Zika virus, Vero, 72 h, read-out: Zika Replicon EC50
pEC50: −log10 of the molar value.
pEC50 values, listed per item

Some entries whose results are on file:
O=C([N-]c1c[n+](Cc2ccc(B(O)O)cn2)no1)Nc1cccc(C(F)(F)F)c1 ... < 4.70
Cc1ncnc(C)c1-c1ccc(C[n+]2cc([N-]C(=O)Nc3cccc(C4CC4)c3)on2)nc1 ... 6.00 to 7.00
C[C@H](c1ccc(Br)cc1)[n+]1cc([N-]C(=O)Nc2cncc(C(F)(F)F)c2)on1 ... 4.70 to 6.00

Find the recorded pEC50 belonging to "Cc1ncnc(C)c1-c1cnc(C[n+]2cc([N-]C(=O)Nc3cccc(C(F)(F)F)c3)on2)nc1" and report it.
> 7.00

====

# Tested on: ZIKV replicon in Vero cells
# assay-protocol: ZIKV Replication Inhibition Assay (replicon, NanoLuc)
# experimental-setup: Zika virus, Vero, 72 h, read-out: Zika Replicon EC50
pEC50: −log10 of the molar value.
measured-quantity: pEC50

Find the recorded pEC50 belonging to CC(Cc1ccccc1)[n+]1cc([N-]C(=O)Nc2cc(F)cc(C(F)(F)F)c2)on1 (centres unmarked) [Example 11] and report it.
< 4.70

Find the recorded pEC50 belonging to Cc1ncncc1-c1cccc(C[n+]2cc([N-]C(=O)Nc3cccc(C(F)(F)F)c3)on2)c1 [Example 83] and report it.
6.00 to 7.00

Find the recorded pEC50 belonging to O=C([N-]c1c[n+](Cc2ccc(-c3cccnc3Cl)cn2)no1)Nc1cccc(C(F)(F)F)c1 [Example 172] and report it.
> 7.00

====

# Tested on: ZIKV replicon in Vero cells
# assay-protocol: ZIKV Replication Inhibition Assay (replicon, NanoLuc)
# experimental-setup: Zika virus, Vero, 72 h, read-out: Zika Replicon EC50
EC50 values, listed per item

Some entries whose results are on file:
Cc1ncn(C)c1-c1ccc(C[n+]2cc([N-]C(=O)Nc3cncc(C(F)(F)F)c3)on2)nc1 ... 1 to 20 µM
O=C([N-]c1c[n+]([C@H](CO)Cc2ccccc2)no1)Nc1cccc(C(F)(F)F)c1 ... 1 to 20 µM
Cc1ncnc(OCCO)c1-c1ccc(C[n+]2cc([N-]C(=O)Nc3cccc(C(F)(F)F)c3)on2)cc1 ... < 0.1 µM

// moving on: another record for EC50
Find the recorded EC50 belonging to "C[C@@H](c1ccc(Br)cc1)[n+]1cc([N-]C(=O)Nc2cncc(C(F)(F)F)c2)on1" and report it.
0.1 to 1 µM

====

# target-system: West Nile Virus (WNV) NS2B-NS3 protease (West Nile virus (WNV), UniProt P06935)
# Sequence (P06935 1502-1679 limits assumed): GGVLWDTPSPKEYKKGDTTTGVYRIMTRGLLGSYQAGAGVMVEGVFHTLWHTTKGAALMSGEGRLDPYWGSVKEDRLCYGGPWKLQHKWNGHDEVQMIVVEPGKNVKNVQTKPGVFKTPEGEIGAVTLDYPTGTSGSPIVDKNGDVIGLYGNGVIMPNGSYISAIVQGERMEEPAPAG
# Sequence (P06935 1371-1501 partner limits assumed): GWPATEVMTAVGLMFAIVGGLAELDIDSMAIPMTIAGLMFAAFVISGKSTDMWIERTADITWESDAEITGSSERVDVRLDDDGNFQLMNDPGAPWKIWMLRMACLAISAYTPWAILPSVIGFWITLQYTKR
# assay-protocol: WNV Protease Inhibition Assay
# Type: biochemical
# experimental-setup: read-out: WNV Protease IC50; 2 nM protease, 10 μM pERTKR-AMC substrate
measured-quantity: IC50

Cc1noc(C)c1-c1ccc([C@H](C)[n+]2cc([N-]C(=O)Nc3ccnc(C(F)(F)F)c3)on2)cc1 ... 100 to 1000 nM

// moving on: another record for IC50
Find the recorded IC50 belonging to "O=C([N-]c1c[n+]([C@@H](CO)Cc2ccccc2)no1)Nc1cccc(C(F)(F)F)c1" and report it.
1000 to 20000 nM

====

EC50 values, listed per item
# Test system: ZIKV replicon in Vero cells
# assay-protocol: ZIKV Replication Inhibition Assay (replicon, NanoLuc)
# experimental-setup: Zika virus, Vero, 72 h, read-out: Zika Replicon EC50

Cc1noc(C)c1-c1ccc(C[n+]2cc([N-]C(=O)Nc3cncc(C(F)(F)F)c3)on2)cc1 [Example 127] ... 100 to 1000 nM

Find the recorded EC50 belonging to CC(Cc1ccccc1)[n+]1cc([N-]C(=O)Nc2cncc(C(F)(F)F)c2)on1 (stereo not shown) [Example 15] and report it.
1000 to 20000 nM

Find the recorded EC50 belonging to O=C([N-]c1c[n+](Cc2ccc(-c3cncnc3C(F)(F)F)cn2)no1)Nc1cccc(C(F)(F)F)c1 [Example 131] and report it.
< 100 nM

Find the recorded EC50 belonging to Cc1ncnc(C)c1-c1ccc(C[n+]2cc([N-]C(=O)Nc3cccc(C(F)(F)F)c3)on2)nc1 [Example 130] and report it.
< 100 nM

Find the recorded EC50 belonging to O=C([N-]c1c[n+](Cc2ccc(-c3ccnnc3)cc2)no1)Nc1cccc(C(F)(F)F)c1 [Example 61] and report it.
< 100 nM

Find the recorded EC50 belonging to Cc1cnncc1-c1ccc(C[n+]2cc([N-]C(=O)Nc3cncc(C(F)(F)F)c3)on2)nc1 [Example 128] and report it.
1000 to 20000 nM

Find the recorded EC50 belonging to O=C([N-]c1c[n+](Cc2ccc(-c3cncnc3C3CC3)cc2)no1)Nc1cccc(C(F)(F)F)c1 [Example 91] and report it.
100 to 1000 nM

Find the recorded EC50 belonging to Cc1cc(C[n+]2cc([N-]C(=O)Nc3cccc(C(F)(F)F)c3)on2)ccc1-c1cncnc1C [Example 101] and report it.
< 100 nM

Find the recorded EC50 belonging to O=C([N-]c1c[n+](Cc2ccc(-c3ccsc3)cc2)no1)Nc1cccc(C(F)(F)F)c1 [Example 20] and report it.
100 to 1000 nM

Find the recorded EC50 belonging to Cc1cnn(C)c1-c1ccc(C[n+]2cc([N-]C(=O)Nc3ccnc(C(F)(F)F)c3)on2)nc1 [Example 175] and report it.
< 100 nM

Find the recorded EC50 belonging to CC(Cc1ccc(Cl)c(Cl)c1)[n+]1cc([N-]C(=O)Nc2cccc(C(F)(F)F)c2)on1 (stereo not shown) [Example 9] and report it.
1000 to 20000 nM
